Endpoint summary: pKd, system: Tyrosine-protein kinase Lck (Homo sapiens), multiple sources combined.
Sequence (P06239 whole entry): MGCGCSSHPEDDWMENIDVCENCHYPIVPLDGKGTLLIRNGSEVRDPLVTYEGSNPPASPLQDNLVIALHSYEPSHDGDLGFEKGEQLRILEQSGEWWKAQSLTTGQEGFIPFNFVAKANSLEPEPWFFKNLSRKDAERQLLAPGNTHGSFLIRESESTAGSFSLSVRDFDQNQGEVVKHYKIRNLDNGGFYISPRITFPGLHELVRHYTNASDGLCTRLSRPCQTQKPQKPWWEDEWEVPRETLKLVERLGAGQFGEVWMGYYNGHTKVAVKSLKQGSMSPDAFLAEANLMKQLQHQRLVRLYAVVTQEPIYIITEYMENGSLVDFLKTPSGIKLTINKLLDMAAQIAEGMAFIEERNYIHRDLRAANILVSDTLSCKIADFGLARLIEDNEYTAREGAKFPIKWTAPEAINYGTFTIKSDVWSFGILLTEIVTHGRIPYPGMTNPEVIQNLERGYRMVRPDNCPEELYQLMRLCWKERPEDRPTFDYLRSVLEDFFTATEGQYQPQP
Just the number, please; pKd means minus log10 of the concentration in mol/L.

Consider the following illustrative entries.
COc1ccc(CNC(=O)[C@H](CCC(=O)O)NC(=O)[C@H](Cc2ccc(CC(=O)O)cc2)NC(=O)Cc2cccc3ccccc23)cc1: 5.30
Cn1c(=O)c(-c2ccccc2Cl)cc2cnc(NC3CCOCC3)nc21: 5.74
COc1ccc(CNC(=O)[C@H](CCC(=O)O)NC(=O)[C@H](Cc2ccc(CS(=O)(=O)O)cc2)NC(=O)Cc2cccc3ccccc23)cc1: 5.40

Here is another compound to look at.
Qu. // returns reported pKd for input "Cc1cc(C)nc(NC(=O)c2cc(C(=O)O)c(C(=O)Nc3cc(C)cc(C)n3)cc2C(=O)O)c1"
Ans. 4.22

* * *

Published log10 Kd for Tyrosine-protein kinase Lck (Homo sapiens, UniProt P06239), assembled from different documents, is shown next.
Note the log scale: values are log10 of Kd expressed in µM.

COc1cccc(CNC(=O)[C@H](CC(C)C)NC(=O)[C@H](Cc2ccc(OP(=O)(O)O)cc2)NC(C)=O)c1: 0.95
Cc1ccc(NC(=O)CN2C(=O)S/C(=C\c3ccc(-c4cc(C(=O)O)ccc4C)o3)C2=O)cc1: 0.78
CC(=O)N[C@@H](Cc1ccc(OP(=O)(O)O)cc1)C(=O)N[C@@H](CC(C)C)C(=O)N(C)Cc1ccc(C)cc1: 0.30
CC(=O)N[C@@H](Cc1ccc(OP(=O)(O)O)cc1)C(=O)N[C@@H](CC(C)C)C(=O)NCc1ccccn1: 1.49
O=C(O)CNC(=O)c1ccc([N+](=O)[O-])cc1: -0.54

Qu. Need log10 Kd, item "O=C(O)c1cc(C(=O)O)cc(C(=O)O)c1"
Ans. 2.30

Qu. What does the data say about its log10 Kd? Entry: "COc1cc(Br)c(C(=O)O)cc1OC"
Ans. -0.62

Qu. For the compound shown here, "COc1ccc(CNC(=O)[C@H](CC(C)C)NC(=O)[C@H](Cc2ccc(OP(=O)(O)O)cc2)NC(C)=O)cc1" , give the reported log10 Kd.
Ans. 0.18

Qu. Any idea what log10 Kd was measured for "COc1ccc(CNC(=O)[C@H](CCC(=O)O)NC(=O)[C@H](Cc2ccc(NC(=O)C(=O)O)cc2)NC(=O)c2ccccc2)cc1" ?
Ans. 1.51

Qu. Which measured log10 Kd value corresponds to "CC(=O)N[C@@H](Cc1ccc(OP(=O)(O)O)cc1)C(=O)N[C@@H](CC(C)C)C(=O)NCc1ccc(C)cc1" ?
Ans. 0.40

Qu. Consider the compound "CC(=O)N[C@@H](Cc1ccc(OP(=O)(O)O)cc1)C(=O)N[C@@H](CC(C)C)C(=O)NCc1ccc(C(C)(C)C)cc1" and give its measured log10 Kd.
Ans. 0.90

* * *

# Kd against Tyrosine-protein kinase Lck (Homo sapiens), merged from multiple literature sources
The response must be a number in µM with no trailing unit.

The examples below pair each entry with its known result.
CO/C=C/C(=O)c1cc2c3c(c(N)cc(NC(=O)C(C)C)c3n1)N=C2: 4.6
CCOC(=O)C(Cc1ccc(OP(=O)(O)O)cc1)NC(C)=O (configuration not stated): 300
COc1ccc(CNC(=O)[C@H](CC(C)C)NC(=O)[C@H](Cc2ccc(OP(=O)(O)O)cc2)NC(C)=O)cc1OC: 12
COc1cc2nccc(Nc3cc(OC)c(OC)c(OC)c3)c2cc1OC: 0.35
COc1ccc(CNC(=O)[C@H](CCC(=O)O)NC(=O)[C@H](Cc2ccc(NC(=O)C(=O)O)cc2)NC(=O)Cc2ccc3ccccc3c2)cc1: 3

We next turn to a different compound, shown below.
Qu. Reported Kd for "O=C(O)c1ccccc1C(=O)n1ccnc1" : what is it?
Ans. 1300
